Provenance of the data: the supplement of paper PMC12764529

Experiment: folding stability dG unfold from chymotrypsin proteolysis; higher = more stable
As shown below, each of these sequences has a reported folding stability dG unfold value.
# unit: kcal/mol | format: bare number

Answered cases to consult:
| Macromolecule Sequence | Measurement Unit | Assay Result |
| --- | --- | --- |
| SAGGAGPEKAEELARALAAELEEEGREWRFKITYSAEPEILSIDVYPLSEPLVDDAKPGYRTLYYDAPSAGG [r13_693_TrMRF] | kcal/mol | 1.19 |
| SAMEIEKIEIEKEEVNGKLYYRIRVKIINKETGKEIELELEFKSLEDALEALKKLPNITRVEITEIEPVSAG [r14_464_TrROS_Hall] | kcal/mol | 5.18 |
| SAGGSAGGSAGGAPDLSLPDVRPRVLVRNPATGKWYEFTSLEELEREIKSGRAEVLEISSAGGSAGGSAGGS [r10_520_TrMRF] | kcal/mol | 0.704 |
| SAGGSAGGKPKVVELELTTEDGSKVRVVFTEDSVYIYNEETGLLVKYNLKTGKFELKEVYPLEESAGGSAGG [r6_462_TrROS_Hall] | kcal/mol | 3.24 |
| SAGPADPGFLGTRTVPHPDGVVTVDVYRFAGTRVLITITLPDSTVPVEDPVESEEEALAFADAVVAEVGLSA [r9_758_JUSTAS] | kcal/mol | 2.27 |
| SAGGSAGGSAGGGMKVEKEESPDSTVTETITDPSSENTTIVTKEVLPDGSLKVTETKELPSAGGSAGGSAGG [r7_828_JUSTAS] | kcal/mol | 0.987 |

# next sequence below
Briefly, folding stability dG unfold measured for SAGGSAGGSAGGSMKIEIVTNDPKKAEEIKEKLEKEGYPKKKNPINIEVKEISEEELLKSAGGSAGGSAGGS [r4_281_JUSTAS] : 0.628
